Some variants, each annotated with its measured protein stability index.
B1: ZBTB22 (parent)
chain: RPFDCPVCNKKFKMKHHLTEHMKT

Variants of: B1
Experiment: protein stability index of a GFP-peptide fusion (GPS, HEK-293T) (PSI 1-6); higher = more stable;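 note: lentivirally expressed fusions sorted by FACS into six bins by GFP to DsRed ratio, PSI derived from sequencing read proportions per bin multiplied by bin number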
Conditions: c terminus: a fixed tail appended
// keep it numeric: no unit symbol after the value

Recorded protein stability index for F12T , please?
2.64

Repeat with D4C
3.54

Continuing:
Recorded protein stability index for E20G , please?
2.73

Repeat with L18N
2.59

Repeat with K13G
2.6

// provenance: the supplement of paper PMC10567573
